# target_entity: GST-TIE2 (intracellular domains of human TIE2) (Homo sapiens)
# Sequence (Q02763 762-1104): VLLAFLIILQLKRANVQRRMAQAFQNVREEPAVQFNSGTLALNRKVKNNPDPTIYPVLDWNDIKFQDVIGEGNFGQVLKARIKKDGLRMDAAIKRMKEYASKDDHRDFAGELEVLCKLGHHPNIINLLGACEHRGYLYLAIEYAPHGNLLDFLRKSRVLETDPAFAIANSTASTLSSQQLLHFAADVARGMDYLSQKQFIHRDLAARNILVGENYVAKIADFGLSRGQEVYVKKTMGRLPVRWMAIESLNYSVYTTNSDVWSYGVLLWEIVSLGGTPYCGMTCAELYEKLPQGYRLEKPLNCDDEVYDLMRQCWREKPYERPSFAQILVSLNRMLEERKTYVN
# measurement_notes: TIE-2 enzyme assay (TIE2-E), LANCE method
# experimental_context: 80 uM ATP
# Method: TIE-2Enzyme Assay (TIE2-E) The TIE-2 enzyme assay used the LANCE method (Wallac) and GST-TIE2, baculovirus expressed recombinant constructs of the intracellular domains of human TIE2 (amino acids 762–1104, GenBank Accession # L06139) tagged by GST). […] This peptide phosphorylation was detected using the following procedure: for enzyme preactivation, GST-TIE2 was incubated for 30 mins at room temperature with 2 mM ATP, 5 mM MgCl2 and 12.5 mM DTT in 22.5 mM HEPES buffer (pH7.4). […]
metric: IC50

**Query** Look at this molecule and give its reported IC50. COC(=O)Nc1nc2cc(Oc3ccc(NC(=O)Nc4cc(C(F)(F)F)ccc4Cl)cc3)ccc2[nH]1 [Example 43]
**Result** < 100 nM

**Query** Look at this molecule and give its reported IC50. O=C(Nc1ccc(Oc2ccc3[nH]c(NC(=O)c4ccc(-n5ccnc5)cc4)nc3c2)cc1)Nc1cc(C(F)(F)F)ccc1F [Example 91]
**Result** < 100 nM

**Query** Look at this molecule and give its reported IC50. O=C(Nc1ccc(Oc2ccc3nc(NC(=O)c4c[nH]c5ccccc45)[nH]c3c2)cc1)Nc1cc(C(F)(F)F)ccc1F [Example 95]
**Result** < 100 nM

**Query** Look at this molecule and give its reported IC50. COC(=O)Nc1nc2cc(Sc3ccc(NC(=O)Nc4cc(C(F)(F)F)ccc4Cl)cc3)ccc2[nH]1.Cl [Example 51, hydrochloride]
**Result** < 100 nM

---

Could you please report measured pIC50 for the items listed next?
# target_entity: TIE2 intracellular domain/c-fms extracellular domain (TIE2/c-fms) chimeric protein expressing mouse 3T3 cells (Homo sapiens)
# Construct: a TIE2 intracellular domain/c-fms extracellular domain (TIE2/c-fms) chimeric protein; expressed in transfected cells; host or cells: mouse 3T3 cells
# Sequence (Q02763 770-1124 limits assumed, change not shown): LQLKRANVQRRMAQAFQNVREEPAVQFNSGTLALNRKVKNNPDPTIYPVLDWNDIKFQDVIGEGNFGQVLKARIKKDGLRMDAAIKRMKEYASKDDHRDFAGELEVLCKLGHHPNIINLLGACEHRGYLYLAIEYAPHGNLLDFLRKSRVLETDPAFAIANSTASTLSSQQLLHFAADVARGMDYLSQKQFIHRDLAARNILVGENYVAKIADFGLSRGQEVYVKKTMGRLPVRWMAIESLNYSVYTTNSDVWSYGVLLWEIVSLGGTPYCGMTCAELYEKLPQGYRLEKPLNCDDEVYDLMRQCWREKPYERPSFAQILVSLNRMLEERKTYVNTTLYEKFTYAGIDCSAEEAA
# measurement_notes: TIE-2 autophosphorylation assay (TIE2-C), ELISA
# Assay type: cell-based
# experimental_context: TIE2/c-fms 3T3 cells, MCSF activation
pIC50: −log10 of the molar value. Structures can show the parent of a compound that is named as a salt.

**Query** Look at this compound and give its reported pIC50. COC(=O)Nc1nc2nc(Oc3ccc(NC(=O)Nc4cc(C(F)(F)F)ccc4F)cc3)ccc2[nH]1 [Example 69, dihydrochloride]
**Result** > 7.00

**Query** Look at this compound and give its reported pIC50. NCC(=O)Nc1nc2cc(Oc3ccc(NC(=O)Nc4cc(C(F)(F)F)ccc4F)cc3)ccc2[nH]1 [Example 30, dihydrochloride]
**Result** > 7.00

**Query** Look at this compound and give its reported pIC50. O=C(Nc1ccc(Oc2ccc3[nH]c(NC(=O)c4ccc5[nH]cnc5c4)nc3c2)cc1)Nc1cc(C(F)(F)F)ccc1F [Example 89]
**Result** > 7.00

**Query** Look at this compound and give its reported pIC50. CN1CCN(CCCNc2nc3ccc(Oc4ccc(NC(=O)Nc5cc(C(F)(F)F)ccc5F)cc4)cc3[nH]2)CC1 [Example 106]
**Result** 6.00 to 7.00

**Query** Look at this compound and give its reported pIC50. CCc1cccc(NC(=O)Nc2ccc(Oc3ccc4[nH]c(NC(=O)OC)nc4c3)nc2)c1 [Example 39]
**Result** 6.00 to 7.00

**Query** Look at this compound and give its reported pIC50. COC(=O)Nc1nc2cc(Oc3ccc(NC(=O)Nc4cc(C(F)(F)F)ccc4Cl)cn3)ccc2[nH]1 [Example 111]
**Result** > 7.00

**Query** Look at this compound and give its reported pIC50. COC(=O)Nc1nc2cc(Oc3ccc(NC(=O)Nc4cc(C(F)(F)F)ccc4Cl)cc3)ccc2[nH]1 [Example 43]
**Result** > 7.00
